property name: pIC50
Hey, just a heads up that pIC50 is the negative log base 10 of the concentration in molar.

Please report pIC50 with Topoisomerase II (UniProt P20831) for item N#Cc1ccc2ccc(=O)n(CCN3CCC(NCc4ccc5c(c4)OCCO5)CC3)c2c1 [Example 1] .
Sequence (P20831 whole entry): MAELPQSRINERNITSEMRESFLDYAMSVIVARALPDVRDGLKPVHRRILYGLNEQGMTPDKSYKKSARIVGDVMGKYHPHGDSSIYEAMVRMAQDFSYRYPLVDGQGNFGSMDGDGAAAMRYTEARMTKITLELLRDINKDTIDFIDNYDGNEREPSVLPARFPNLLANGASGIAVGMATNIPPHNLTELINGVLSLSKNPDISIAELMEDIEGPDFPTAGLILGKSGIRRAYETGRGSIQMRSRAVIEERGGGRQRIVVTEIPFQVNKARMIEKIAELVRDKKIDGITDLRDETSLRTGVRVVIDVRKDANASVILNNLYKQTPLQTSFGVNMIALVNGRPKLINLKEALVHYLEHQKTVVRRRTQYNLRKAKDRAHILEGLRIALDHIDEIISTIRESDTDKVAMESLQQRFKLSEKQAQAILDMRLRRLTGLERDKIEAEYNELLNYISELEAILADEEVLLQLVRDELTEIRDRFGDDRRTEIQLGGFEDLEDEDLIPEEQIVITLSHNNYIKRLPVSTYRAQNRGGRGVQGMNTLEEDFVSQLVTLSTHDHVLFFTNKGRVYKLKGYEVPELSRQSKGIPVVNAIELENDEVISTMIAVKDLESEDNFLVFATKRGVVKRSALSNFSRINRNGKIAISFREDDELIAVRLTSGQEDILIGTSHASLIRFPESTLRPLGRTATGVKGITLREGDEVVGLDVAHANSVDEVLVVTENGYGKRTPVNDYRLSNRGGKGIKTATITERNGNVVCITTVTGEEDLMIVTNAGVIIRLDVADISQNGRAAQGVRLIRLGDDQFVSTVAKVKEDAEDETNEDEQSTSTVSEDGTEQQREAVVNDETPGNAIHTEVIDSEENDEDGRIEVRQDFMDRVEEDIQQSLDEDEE
7.36

Please report pIC50 with Topoisomerase II (UniProt P20831) for item O=C1COc2ccc(CNC3CCN(CCn4c(=O)ccc5ccc(F)cc54)CC3)cc2N1 [Example 4] .
8.16

Please report pIC50 with Topoisomerase II (UniProt P20831) for item N#Cc1ccc2ccc(=O)n(CCN3CCC(NCc4ccc5c(c4)NC(=O)CS5)CC3)c2c1 [Example 3] .
8.49

Please report pIC50 with Topoisomerase II (UniProt P20831) for item O=C1CSc2ccc(CNC3CCN(CCn4c(=O)ccc5ccc(F)cc54)CC3)cc2N1 [Example 5] .
7.42

Please report pIC50 with Topoisomerase II (UniProt P20831) for item N#Cc1ccc2ccc(=O)n(CCN3CCC(NCc4ccc5c(c4)NC(=O)CO5)CC3)c2c1 [Example 2] .
8.47

###

Entries with their measured MIC, system Staphylococcus aureus ATCC 29213:
Give the value in µg/mL but do not write µg/mL after it.

Return MIC for the following molecule: N#Cc1ccc2ccc(=O)n(CCN3CCC(NCc4ccc5c(c4)OCCO5)CC3)c2c1
0.03

Return MIC for the following molecule: N#Cc1ccc2ccc(=O)n(CCN3CCC(NCc4ccc5c(c4)NC(=O)CS5)CC3)c2c1
0.06

Return MIC for the following molecule: O=C1CSc2ccc(CNC3CCN(CCn4c(=O)ccc5ccc(F)cc54)CC3)cc2N1
0.25

Return MIC for the following molecule: N#Cc1ccc2ccc(=O)n(CCN3CCC(NCc4ccc5c(c4)NC(=O)CO5)CC3)c2c1
0.25

###

property name: pIC50
Hey, just a heads up that pIC50 is the negative log base 10 of the concentration in molar.

Please report pIC50 with Topoisomerase IV (Escherichia coli) for item N#Cc1ccc2ccc(=O)n(CCN3CCC(NCc4ccc5c(c4)OCCO5)CC3)c2c1 .
Sequence (P0AFI2 whole entry): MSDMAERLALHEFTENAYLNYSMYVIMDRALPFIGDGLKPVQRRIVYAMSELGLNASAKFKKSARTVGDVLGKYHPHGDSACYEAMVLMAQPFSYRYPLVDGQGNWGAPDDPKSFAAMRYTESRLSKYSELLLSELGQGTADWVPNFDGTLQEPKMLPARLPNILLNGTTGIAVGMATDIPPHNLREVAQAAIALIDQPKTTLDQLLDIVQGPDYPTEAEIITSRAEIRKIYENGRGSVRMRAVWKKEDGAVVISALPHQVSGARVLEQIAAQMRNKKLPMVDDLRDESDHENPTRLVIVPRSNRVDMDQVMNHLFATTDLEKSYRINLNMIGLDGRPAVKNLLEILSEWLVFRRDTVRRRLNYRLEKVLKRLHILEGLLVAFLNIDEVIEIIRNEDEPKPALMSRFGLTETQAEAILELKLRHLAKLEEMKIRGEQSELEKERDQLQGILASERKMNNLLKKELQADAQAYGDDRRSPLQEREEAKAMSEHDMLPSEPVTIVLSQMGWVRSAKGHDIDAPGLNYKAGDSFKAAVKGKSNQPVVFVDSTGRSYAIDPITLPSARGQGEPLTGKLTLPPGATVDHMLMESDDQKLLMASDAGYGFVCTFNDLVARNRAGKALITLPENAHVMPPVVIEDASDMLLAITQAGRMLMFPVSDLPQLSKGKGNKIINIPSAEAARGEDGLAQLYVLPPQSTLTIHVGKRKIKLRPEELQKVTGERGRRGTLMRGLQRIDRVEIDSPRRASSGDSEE
Sequence (P20083 whole entry, further chain): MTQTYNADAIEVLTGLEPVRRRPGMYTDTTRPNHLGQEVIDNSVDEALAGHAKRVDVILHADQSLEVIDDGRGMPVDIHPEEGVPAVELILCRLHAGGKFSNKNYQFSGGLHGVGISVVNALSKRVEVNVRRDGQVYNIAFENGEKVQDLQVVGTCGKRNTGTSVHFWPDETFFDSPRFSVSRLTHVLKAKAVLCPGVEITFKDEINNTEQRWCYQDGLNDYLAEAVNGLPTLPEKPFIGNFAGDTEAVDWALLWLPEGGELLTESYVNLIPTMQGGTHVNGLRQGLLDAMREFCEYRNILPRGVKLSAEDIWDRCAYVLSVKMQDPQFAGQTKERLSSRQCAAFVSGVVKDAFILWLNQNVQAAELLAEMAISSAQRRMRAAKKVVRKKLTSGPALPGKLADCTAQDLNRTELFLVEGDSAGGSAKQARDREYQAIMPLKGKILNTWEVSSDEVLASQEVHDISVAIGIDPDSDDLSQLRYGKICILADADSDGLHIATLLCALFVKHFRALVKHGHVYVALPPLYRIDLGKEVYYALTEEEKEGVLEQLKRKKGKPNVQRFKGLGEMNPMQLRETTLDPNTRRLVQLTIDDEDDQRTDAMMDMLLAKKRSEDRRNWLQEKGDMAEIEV
6.05

Please report pIC50 with Topoisomerase IV (Escherichia coli) for item N#Cc1ccc2ccc(=O)n(CCN3CCC(NCc4ccc5c(c4)NC(=O)CS5)CC3)c2c1 .
6.52

Please report pIC50 with Topoisomerase IV (Escherichia coli) for item N#Cc1ccc2ccc(=O)n(CCN3CCC(NCc4ccc5c(c4)NC(=O)CO5)CC3)c2c1 .
5.89

Please report pIC50 with Topoisomerase IV (Escherichia coli) for item O=C1CSc2ccc(CNC3CCN(CCn4c(=O)ccc5ccc(F)cc54)CC3)cc2N1 .
6.10

Please report pIC50 with Topoisomerase IV (Escherichia coli) for item O=C1COc2ccc(CNC3CCN(CCn4c(=O)ccc5ccc(F)cc54)CC3)cc2N1 .
6.40
